Listed next: entries and their corresponding growth.
Tested on: SF-539 CNS
assay_notes: NCI-60 one-dose screen, 48 h (100 = growth as untreated, 0 = no growth, -100 = all killed)
study_conditions: 10 µM
About 83,000 compounds went through this panel and 20% of them were active in at least one assay; those are over-represented in the sample as a whole.
Number only, in %; omit the unit.

Below, each entry is followed by its recorded growth result.
O=C(CCCCNC(=O)c1nc(-c2ccccc2)n(-c2ccccc2)n1)NO
65.1
COc1cc(NC(=O)C2=C(N3CCOCC3)/C(=C/c3ccc(Cl)cc3)CC2)cc(OC)c1OC
101
O=C(O)c1ccc(-n2cc(CNc3ccc(Cl)cc3)c(-c3ccccc3)n2)cc1
82.6
COc1cc2ncnc(NC3CCC(O)CC3)c2cc1OC (stereo not given)
95.4
O=C1CC(=O)N(C(=O)c2nn(-c3ccc(Cl)cc3)cc2O)N1
39.7
CCOc1ccccc1/C=N/N1CCCCCC1
109

## Input Query: growth; subject: COC1OC(COS(=O)OC)C(O)C(O)C1OS(=O)OC (stereo not given)
## Output 98.3

## Input Look at this molecule and give its reported growth. CC(C)N(CCOc1cccc(-c2nc3sccn3c2-c2ccnc(S(C)(=O)=O)n2)c1)C(C)C
## Output 91.9

## Input Please give the measured growth for this molecule: Cc1ccc(C2=NN(c3ccc(S(C)(=O)=O)cc3)C(=O)CC2)cc1
## Output -7.93

## Input Reported growth for CN(C)CCCSc1ccccc1NC1=C(Cl)C(=O)C(Nc2ccccc2SCCCN(C)C)=C(Cl)C1=O : what is it?
## Output 42.8

* * *

Tested on: PC-3 prostate
assay_notes: NCI-60 one-dose screen, 48 h (100 = growth as untreated, 0 = no growth, -100 = all killed)
study_conditions: 10 µM
About 83,000 compounds went through this panel and 20% of them were active in at least one assay; those are over-represented in the sample as a whole.
measurement_kind: growth (%)
// note: answer is a bare numeric in %

C[N+]1(CCCCC[N+]2(C)CCCC2)CCCC1
86.3
CC(C)(C)c1ccc(S(=O)(=O)N[C@H]2CC[C@H]3[C@@H]4CCc5cc(OS(=O)(=O)O)ccc5[C@H]4CC[C@]23C)cc1
27.5
CN1CCN(CCCn2c(=O)c3sc4ncccc4c3n3nnc(-c4ccccc4)c23)CC1
46.5

# evaluate next
## Input Give the reported growth for CC(=O)[C@H]1CC[C@]2(C)[C@@H]1CC[C@@H]1[C@@]3(C)CC(CCC#N)(CCC#N)C(=O)C(C)(C)[C@@H]3CC[C@]12C (system: PC-3 prostate).
## Output 93.8

* * *

Tested on: PC-3 prostate
assay_notes: NCI-60 one-dose screen, 48 h
study_conditions: 10 µM
This is part of a sample that, as a whole, favours compounds with a hit. Of some 83,000 tested, about 20% had one in any assay. Calls of active or inactive are those of the source. Rule for the calls: active = growth percent below 10; inactive = the rest.
Respond only with the outcome that fits, drawn from label 1 for active, label 0 for inactive

Known results for compounds:
O=C(CCl)Nc1ccc(Cc2ccc(NC(=O)CCl)cc2)cc1
label 1
CCN1CCN(CCC(=O)Nc2cccc(-n3cc(-c4ccncc4)c(-c4ccc(Cl)c(OC)c4)n3)c2)CC1
label 0
COc1cc(/C=C/c2cc(/C=C/c3ccc(O)c(OC)c3)nc(N)n2)ccc1O
label 0
O=[N+]([O-])c1ccc2ncccc2c1Cl
label 0

## Input Lab log entry: COc1cc2c(cc1NC(=O)C(Cl)Cl)-c1ccc(NC(=O)C(Cl)Cl)cc1C2 — outcome as called in the assay?
## Output label 0

## Input Could you check what this test reported for CCOC(=O)c1cocc1C(=O)O ?
## Output label 0

## Input Record lookup: outcome of this test for CC(C)C[C@H](NC(=O)Cn1cccc(CNC(=O)c2ccccc2)c1=O)B(O)O ?
## Output label 0

## Input Could you check what this test reported for C=CCn1c(SCC(=O)Nc2ccc(C(=O)/C=C/c3cc(OC)c(OC)c(OC)c3)cc2)nnc1-c1cc(-c2ccc(Cl)cc2)nc2ccccc12 ?
## Output label 0

## Input Per the records of this test, what outcome belongs to Cc1cn(-c2cccc(NC(=O)c3ccc(C)c(Nc4nccc(-c5cccnc5)n4)c3)c2)cn1 ?
## Output label 0

## Input Kindly provide the recorded test outcome for the following compound: C=CCn1c(SCC(=O)Nc2ccc(C(=O)/C=C/c3ccc(Cl)cc3)cc2)nnc1-c1cc(-c2ccccc2)nc2ccccc12
## Output label 0

## Input Hi team, can someone confirm the assay call for O=C(CCc1nnc2sc(-c3cc(O)c(O)c(O)c3)nn12)c1nc2ccccc2[nH]1 ?
## Output label 0

## Input I'd appreciate the recorded outcome for COc1cc2c(cc1NC(=O)C(F)(F)F)-c1ccc(NC(=O)C(F)(F)F)cc1C2 from this test.
## Output label 0

## Input I'd appreciate the recorded outcome for Cc1ccc(C(=O)/C=C/c2ccccc2)s1 from this test.
## Output label 0

## Input In this assay, the call recorded for COc1cc(CNC(=O)C2CSC3(C)c4ccccc4C(=O)N23)cc(OC)c1OC (stereo not given) was what?
## Output label 0

## Input Write down the call the test reported for this compound. Item: CCCc1nc(C(C)(C)O)c(C(=O)O)n1Cc1ccc(-c2ccccc2-c2nn[nH]n2)cc1
## Output label 0

## Input Outcome? COc1ccc(C2=Cn3c(CCC(=O)c4nc5ccccc5[nH]4)nnc3SC2)cc1
## Output label 0

## Input Returns: the outcome recorded for CCOC(=O)/C(=C(\C)N)C1CC(=O)NC1=O (stereo not given) in this assay.
## Output label 0

## Input Call for entry COc1cc2cc(Oc3ccc(NC(=O)c4cccc(C(F)(F)F)c4)cc3)c(C)nc2cc1OC :
## Output label 1

## Input Give the logged outcome of this assay for the following compound: CC(C)c1cc(N=O)cc(C(C)C)c1O
## Output label 0

## Input Outcome? O=C(NCCNC(=O)c1ccc(F)cc1)Nc1ccc(-n2cc(-c3ccncc3)c(-c3ccc(Cl)c(O)c3)n2)cc1
## Output label 1

## Input Please state the recorded outcome for this compound: CNC(=O)c1cn2c3c(c(N4CCN(C)CC4)c(F)cc3c1=O)OC[C@@H]2C
## Output label 0

## Input // outcome(item) with item = CCC(c1ccc(OC)cc1)C(CC)c1ccc(O)c(CN2CCN(C)CC2)c1 (stereo not given)
## Output label 0

## Input Recorded test outcome, item O=C(O)c1cn(C2CC2)c2cc(N3CCN(C(=O)c4cc(-c5ccc(Cl)cc5)nc5ccccc45)CC3)c(F)cc2c1=O
## Output label 0

* * *

System: NCI-H460 lung
assay_notes: NCI-60 one-dose screen, 48 h (100 = growth as untreated, 0 = no growth, -100 = all killed)
study_conditions: 10 µM
Protocol: Growth inhibition of the NCI-H460 human Non-Small Cell Lung tumor cell line is measured as a screen for anti-cancer activity. Cells are grown in 96 well plates and exposed to the test compound for 48 hours. Compounds are tested at a single concentration, which is 10^-5 M for most compounds. The reported endpoint is percent growth (GI% or GIPRCNT), where numbers from 0 - 100% represent growth inhibition, and numbers from -100% - 0 represent cell death. […]
The panel holds about 83,000 compounds, 20% with a hit somewhere; the sample as a whole holds those more often.
measurement_kind: growth (%)
Quick note: give the figure in %, leave out the unit.

## Input Bench note: what growth did CC(=O)N[C@H](C(=O)N[C@@H](CCCNC(=N)N)C(=O)N[C@@H](CCCCN)C(=O)N[C@@H](CCCNC(=N)N)C(=O)NC(C(=O)N[C@@H](CC(C)C)C(=O)N[C@@H](CCCNC(=N)N)C(=O)N[C@@]1(C)CCC/C=C\CCC[C@@](C)(C(=O)N[C@@H](CCCNC(=N)N)C(=O)N[C@@H](CCC(=O)O)C(=O)N[C@@H](CC(C)C)C(=O)N[C@H](C(=O)N[C@@H](CCC(=O)O)C(N)=O)C(C)C)NC(=O)[C@H](CCC(N)=O)NC(=O)[C@H](CC(C)C)NC(=O)[C@H](CC(C)C)NC1=O)[C@@H](C)O)C(C)C (stereo partly specified) show?
## Output -63.6

* * *

System: M14 melanoma
assay_notes: NCI-60 one-dose screen, 48 h (100 = growth as untreated, 0 = no growth, -100 = all killed)
study_conditions: 10 µM
The panel holds about 83,000 compounds, 20% with a hit somewhere; the sample as a whole holds those more often.
measurement_kind: growth (%)
Field: numeric (%). Do not append units.

CCOC(=O)C(C)(c1ccccc1)c1ccccc1
102
CCN(CC)CC(=O)N(CC)c1ccc(C)c(Cl)c1
100
Cc1ccc(NC(=S)NNC(=S)Nc2ccc(C)cc2)cc1
44.2

## Input Quick one: growth for COc1ccc(/C(C#N)=C/c2cccc(OC)c2OC)cc1 ?
## Output 86

* * *

Tested on: UACC-62 melanoma
assay_notes: NCI-60 one-dose screen, 48 h
study_conditions: 10 µM
This is part of a sample that, as a whole, favours compounds with a hit. Of some 83,000 tested, about 20% had one in any assay. Active and inactive are the calls of the source. How the source made its calls: active means growth percent below 10; inactive means the rest.
Returns: one label drawn from true = active, false = inactive

## Input Answer briefly: the call reported for O=C(O)c1cc([N+](=O)[O-])ccc1Oc1ccccc1 in this assay.
## Output false
